testTarget: Purified recombinant human PCSK9 (His-tagged, BPS Biosciences) (human) (UniProt Q8NBP7)
Sequence (Q8NBP7 31-692 limits assumed): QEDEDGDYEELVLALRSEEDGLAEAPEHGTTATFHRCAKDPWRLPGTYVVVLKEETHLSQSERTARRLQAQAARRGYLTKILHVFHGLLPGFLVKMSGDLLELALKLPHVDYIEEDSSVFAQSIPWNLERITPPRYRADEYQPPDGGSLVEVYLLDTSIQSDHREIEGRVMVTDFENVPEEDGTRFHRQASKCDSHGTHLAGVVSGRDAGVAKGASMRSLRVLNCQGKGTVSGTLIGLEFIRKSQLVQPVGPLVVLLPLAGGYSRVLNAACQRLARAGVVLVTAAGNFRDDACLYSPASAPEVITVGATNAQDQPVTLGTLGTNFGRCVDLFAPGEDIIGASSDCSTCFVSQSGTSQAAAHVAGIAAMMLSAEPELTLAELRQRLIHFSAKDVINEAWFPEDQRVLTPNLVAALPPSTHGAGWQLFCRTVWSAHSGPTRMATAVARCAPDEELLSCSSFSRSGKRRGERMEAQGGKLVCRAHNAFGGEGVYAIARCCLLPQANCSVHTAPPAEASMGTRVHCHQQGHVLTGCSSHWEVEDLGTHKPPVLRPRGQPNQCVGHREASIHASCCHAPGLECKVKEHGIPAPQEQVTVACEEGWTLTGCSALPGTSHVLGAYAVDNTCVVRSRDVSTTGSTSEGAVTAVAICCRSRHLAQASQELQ
experimentDescription: SPR (Biacore T200), PCSK9 amine-coupled on chip, peptide at 100 µM
Non-standard residues stand in square brackets, D forms with d. No end group written: not given here. Nle = CCCC[C@H](N)C(=O)O; APPA = not defined here
measuredParameter: Binding - Response Unit (RU)
# output: bare number, implied unit RU

Challenge: Kindly indicate its recorded Binding - Response Unit (RU). Item: SIP[APPA]NLERITPC (reading uncertain) [Short chain peptide Seq. ID. No. 18 (SIP-APPA-NLERITPC)]
Response given: 17.9

Challenge: Fill in reported Binding - Response Unit (RU) for this entry: SIP[Bip(OMe)]NLERITPC [Short chain peptide Seq. ID. No. 19 (SIP-Bip(OMe)-NLERITPC)]
Response given: 85.9

Challenge: Provide only the value of recorded Binding - Response Unit (RU) for SIPWN[Nle]ERITPC [Short chain peptide Seq. ID. No. 7 (SIPWN-Nle-ERITPC)]
Response given: 16

Challenge: Given the binder SIPWNLER[Nle]TPC [Short chain peptide Seq. ID. No. 4 (SIPWNLER-Nle-TPC)] , write its reported Binding - Response Unit (RU).
Response given: 30
